- System: MALME-3M melanoma
- Assay Notes: NCI tumour cell line growth inhibition, 48 h
Outcome Measure: TGI (µM)
State just the number; it will be interpreted in µM.

Some solved entries appear below for comparison.
- Compound Structure: "O=C(Cc1ccc(F)cc1)NC1=C(Cl)C(=O)c2ccccc2C1=O"
  Outcome Measure: "TGI"
  Result Number: 7.89
- Compound Structure: "Cn1ccc2c1SSSSS2"
  Outcome Measure: "TGI"
  Result Number: 41.6

Quick check: TGI of `O=C(NC(=S)Nc1ccc2c(c1)Sc1ccccc1O2)c1ccccc1` ?
93.2

====

- Test system: M14 melanoma
- Assay Notes: NCI tumour cell line growth inhibition, 48 h; in the data active means GI50 below about 0.43 µM; inactive means the rest
Choose the fitting class; nothing outside Y for active, N for inactive is accepted.

Would you please look over these solved cases?
- Compound: "COc1ccc(C2C=C(c3ccc(OC)c(OC)c3)N=C3SC=CN32)c(Br)c1 (centres undefined)"
  Classification: "N"
- Compound: "COc1ccc(C(=O)c2sc3nc4c(cc3c2N)CCCC4)cc1OC"
  Classification: "N"
- Compound: "COc1cc2cnc3c(c2c(OC)c1OC)Cc1cc2c(cc1-3)OCO2"
  Classification: "N"
- Compound: "COc1ccc2c(c1OC)-c1c(c3ccc([N+](=O)[O-])cc3c(=O)n1CCCN)C2=O"
  Classification: "N"
- Compound: "C[CH2][Pb]([CH2]C)([CH2]C)[O]C(=O)COC"
  Classification: "Y"
- Compound: "c1ccc2nc(N/N=C3\\CCCCC3C3CCCCC3)ccc2c1 (centres undefined)"
  Classification: "N"

Assay result, entry `CC(=O)c1c(Nc2cccc(F)c2)[nH]c2c(Cl)cc(Cl)c(Cl)c2c1=O` — outcome?
Y

Please share the test call associated with `N/C(=N\N=C/c1c2ccccc2c(Cl)c2ccccc12)NO` .
N

====

- System: MALME-3M melanoma
- Assay Notes: NCI tumour cell line growth inhibition, 48 h; in the data active = GI50 below about 0.43 µM; inactive = the rest
Hi! Could you answer with just one of these? TRUE for active, FALSE for inactive

Lab log entry: `CC(=O)c1c(Nc2cccc(F)c2)[nH]c2c(Cl)cc(Cl)c(Cl)c2c1=O` — outcome as called in the assay?
TRUE

What is the recorded call for this compound in the test? `COc1cc(/C=C/C(=O)c2ccccc2)cc(OC)c1OC`
FALSE

Dear colleague, could you share the recorded outcome for O=C1C=CC2(O)OC/C(=C\c3ccccc3)C(O)=C2C1=O (centres undefined) when you have a moment?
FALSE

Query: recorded result category for `O=C1/C=C/[C@@H](O)[C@@H]2C[C@@H](O)C[C@H]2/C=C/CCC[C@H](CCc2ccccc2)O1` in this test
TRUE

Called result for `Cn1cc(-c2csc(-c3c[nH]c4ccccc34)n2)c2cnccc21`
FALSE

What outcome does the record of this test show for `Nc1c(C(=O)c2cccc(OC[C@@H](O)CO)c2)cnn1-c1ccc(F)cc1` ?
FALSE

Test call for this compound, please: C#CC[C@@H]1C[C@]2(C)[C@H]3CC[C@@H]4[C@H]5C(C(=C)C)CC[C@]5(C(=O)NCCCCN)CC[C@@]4(C)[C@]3(C)CC[C@H]2C(C)(C)[C@H]1OC(C)=O (some centres undefined)
FALSE

Could you check what this test reported for `Cc1nn2c(/C=N/N=C(N)N)c(-c3ccc(Cl)c([N+](=O)[O-])c3)nc2s1` ?
FALSE

Each compound tested received a call. Report the one for `Cc1ccc(C2=NN(c3ccc(S(C)(=O)=O)cc3)C(=O)CC2)cc1` .
FALSE

====

Documented TGI across a set of compounds
- Test system: M19-MEL melanoma
- Assay Notes: NCI tumour cell line growth inhibition, 48 h

Worked cases, answers included:
- Compound: "COc1cc([C@@H]2c3cc4c(cc3[C@@H](OC3OC5CO[C@@H](c6cccs6)OC5C(O)C3O)[C@H]3COC(=O)[C@H]23)OCO4)cc(OC)c1O (some centres undefined)"
  Tested Target: "M19-MEL melanoma"
  Outcome Measure: "TGI"
  Result: "12.4 µM"
- Compound: "COC(=O)C1[C@@H](C(=O)OC)C(=O)O[C@H]1c1cc(OC)c(OC)c(OC)c1 (some centres undefined)"
  Tested Target: "M19-MEL melanoma"
  Outcome Measure: "TGI"
  Result: "> 100 µM"
- Compound: "C=[CH][Sn]([CH]=C)([S]c1cccc2cccnc12)[S]c1cccc2cccnc12"
  Tested Target: "M19-MEL melanoma"
  Outcome Measure: "TGI"
  Result: "0.372 µM"

Query (compound): `COc1ccc(/C=N/N/C(O)=c2/sc(=C(C#N)C#N)n(-c3ccccc3)c2=N)cc1` ; field requested: TGI
> 100 µM

# get_value(readout='TGI', item= `C/C(CC(=O)Nc1ccc(Cl)c(Cl)c1)=N/NC(=O)C[N+](C)(C)C` )
> 100 µM

====

Readings of TGI for the listed compounds
- Test system: A498 renal
- Assay Notes: NCI tumour cell line growth inhibition, 48 h
Respond with the bare value in µM.

- Compound Structure: "CCCCNC(=O)c1cc(S(=O)(=O)n2cc[nH]c2=O)c(SC)cc1Cl"
  TGI / µM: 97
- Compound Structure: "O=c1c2ccccc2n2c(-c3ccc(O)cc3)nnc2n1-c1ccccc1"
  TGI / µM: 31.6

Let's switch to this compound now.
Which TGI value belongs to `COc1ccc(-c2nc(Sc3c([N+](=O)[O-])ncn3C)n[nH]2)cc1` ?
37.6

====

- Tested on: SK-MEL-5 melanoma
- Assay Notes: NCI tumour cell line growth inhibition, 48 h; in the data active = GI50 below about 0.43 µM; inactive = the rest
Where a SMILES comes first, the peptide text is derived from it. [ ]: non-standard residue; d: D form. The star is where a group is joined. ξ: configuration not given here. NMeF = CN[C@@H](Cc1ccccc1)C(=O)O; NMeV = CN[C@H](C(=O)O)C(C)C; ξNMeN = CNC(CC(N)=O)C(=O)O; NMeA = CN[C@@H](C)C(=O)O; ξNMeV = CNC(C(=O)O)C(C)C; Boc = CC(C)(C)OC(=O)*
The reply should be one of these categories: label 1 for active, label 0 for inactive

- Compound: "CCN(CC)CC(O)CNc1c2ccc(Cl)cc2nc2ccc(OC)cc12 (centres undefined)"
  Classification: "label 0"
- Compound: "CCCCOC(=O)CC(CC(=O)OCCCC)(OC(C)=O)C(=O)OCCCC"
  Classification: "label 0"
- Compound: "O=c1ccccc(-c2ccc(Br)cc2)c1O"
  Classification: "label 1"
- Compound: "CCc1ccc(C(=O)/C=C/C23c4ccccc4C(c4ccccc42)C2C(=O)NC(=O)C23)cc1 (centres undefined)"
  Classification: "label 0"
- Compound: "COC(=O)[C@H](C)N(C)C(=O)C(CC(N)=O)N(C)C(=O)[C@H](Cc1ccccc1)N(C)C(=O)[C@@H]1CCCN1C(=O)[C@H](C(C)C)N(C)C(=O)C(C(C)C)N(C)C(=O)[C@@H](NC(=O)OC(C)(C)C)C(C)C (some centres undefined) (Boc-V[ξNMeV][NMeV]P[NMeF][ξNMeN][NMeA]-OMe)"
  Classification: "label 0"
- Compound: "COC(=O)/C=C1/SC(=Nc2ccc(F)cc2)N(CCc2c[nH]c3ccc(O)cc23)C1=O"
  Classification: "label 0"
- Compound: "CC(C)Oc1ccc(-c2nn([C@@H](C)c3oc4ccc(F)cc4c(=O)c3-c3cccc(F)c3)c3ncnc(N)c23)cc1F"
  Classification: "label 0"
- Compound: "c1ccc2nc(N/N=C3\\CCCCC3C3CCCCC3)ccc2c1 (centres undefined)"
  Classification: "label 0"
- Compound: "Cc1nc2cc(-c3nn(C(C)C)c4ncnc(N)c34)ccc2o1"
  Classification: "label 1"
- Compound: "CCCN1C/C(=C\\c2ccc(O)c(OC)c2)C(=O)/C(=C/c2ccc(O)c(OC)c2)C1"
  Classification: "label 0"

Query: recorded result category for `COc1cc2cnc3c(c2c(OC)c1OC)Cc1cc2c(cc1-3)OCO2` in this test
label 0

Called result for O=C(OCC1OC(n2cc(C(F)(F)F)c(=O)[nH]c2=O)CC1OC(=O)c1ccc([N+](=O)[O-])cc1)c1ccc([N+](=O)[O-])cc1 (centres undefined)
label 0

Per the assay record, what outcome was assigned to CC(C)N(C(C)C)[PH+]1O[PH+](N(C(C)C)C(C)C)O[PH+](N(C(C)C)C(C)C)O[PH+](N(C(C)C)C(C)C)O1.[C-]#[O+].[C-]#[O+].[C-]#[O+].[C-]#[O+].[C-]#[O+].[C-]#[O+].[C-]#[O+].[C-]#[O+].[Mo].[Mo] (centres undefined) ?
label 0

Name the outcome recorded for `C[CH2][Pb]([CH2]C)([CH2]C)[O]C(=O)COC` in the assay.
label 0

====

- Tested on: MALME-3M melanoma
- Assay Notes: NCI tumour cell line growth inhibition, 48 h
Outcome Measure: TGI

Before answering, review these 5 worked examples.
- Compound Structure: "C=C=C(Sc1ccccc1)C(C)(C)O"
  Tested Target: "MALME-3M melanoma"
  TGI: "> 100 µM"
- Compound Structure: "COc1cc(-c2nc3ccc(N4CCN(C)CC4)cc3[nH]2)c(OC)c2[nH]c(CO)nc12"
  Tested Target: "MALME-3M melanoma"
  TGI: "> 100 µM"
- Compound Structure: "Cn1cnc([N+](=O)[O-])c1Sc1nc2ccccc2s1"
  Tested Target: "MALME-3M melanoma"
  TGI: "13.2 µM"
- Compound Structure: "CCn1c2ccccc2c2cc(N=Nc3ccc(C#N)cc3)ccc21"
  Tested Target: "MALME-3M melanoma"
  TGI: "52.7 µM"
- Compound Structure: "CCCCNC(=O)c1cc(S(=O)(=O)n2cc[nH]c2=O)c(SC)cc1Cl"
  Tested Target: "MALME-3M melanoma"
  TGI: "> 100 µM"

Any idea what TGI was measured for `Nn1c(SCC(=O)O)nc2ccccc2c1=O` ?
> 100 µM
